details: 313.15 K; 7500 kPa; Liquid; Vibrating tube method
measured-parameter: mass density (kg/m3)
Numbers only, in kg/m3.

Worked cases, answers included:
INSERT INTO results (compound, readout_number) VALUES
  ('CCn1cc[n+](C)c1.O=S(=O)([O-])C(F)(F)F [1-ethyl-3-methylimidazolium trifluoromethanesulfonate]', 1365.7),
  ('CCC[n+]1cccc(C)c1.O=S(=O)([N-]S(=O)(=O)C(F)(F)F)C(F)(F)F', 1440),
  ('CCC[N+]1(C)CCCCC1.O=S(=O)([N-]S(=O)(=O)C(F)(F)F)C(F)(F)F', 1402.8);

Okay, here is my list. What is mass density for each of these?
1. CCC[N+]1(C)CCCC1.O=S(=O)([N-]S(=O)(=O)C(F)(F)F)C(F)(F)F
2. CCCC[N+]1(C)CCCC1.O=S(=O)([N-]S(=O)(=O)C(F)(F)F)C(F)(F)F

[1424.3, 1395.2]

---

Provide the reported mass density of each item.
conditions: 333.15 K; 1000 kPa; Liquid; Vibrating tube method
Answers are plain numbers, in kg/m3.

Solved entries:
INSERT INTO assay_data (compound, readout_number) VALUES
  ('CCn1cc[n+](C)c1.O=S(=O)([O-])C(F)(F)F [1-ethyl-3-methylimidazolium trifluoromethanesulfonate]', 1343.3),
  ('CCC[N+]1(C)CCCC1.O=S(=O)([N-]S(=O)(=O)C(F)(F)F)C(F)(F)F', 1399.7),
  ('CCC[n+]1cccc(C)c1.O=S(=O)([N-]S(=O)(=O)C(F)(F)F)C(F)(F)F', 1414.4),
  ('CCC[N+]1(C)CCCCC1.O=S(=O)([N-]S(=O)(=O)C(F)(F)F)C(F)(F)F', 1377.8);

Could you tell me which mass density is on file for `CCCC[N+]1(C)CCCC1.O=S(=O)([N-]S(=O)(=O)C(F)(F)F)C(F)(F)F` ?
1370.9

---

conditions: 303.15 K; 15000 kPa; Liquid; Vibrating tube method
measured-parameter: mass density (kg/m3)
One number for each entry, in kg/m3.

INSERT INTO measurements (compound, readout_number) VALUES
  ('CCn1cc[n+](C)c1.O=S(=O)([O-])C(F)(F)F [1-ethyl-3-methylimidazolium trifluoromethanesulfonate]', 1379),
  ('CCCC[N+]1(C)CCCC1.O=S(=O)([N-]S(=O)(=O)C(F)(F)F)C(F)(F)F', 1410.1),
  ('CCC[N+]1(C)CCCCC1.O=S(=O)([N-]S(=O)(=O)C(F)(F)F)C(F)(F)F', 1417.7);

Count: 2. Required value per item: mass density.
1. CCC[n+]1cccc(C)c1.O=S(=O)([N-]S(=O)(=O)C(F)(F)F)C(F)(F)F
2. CCC[N+]1(C)CCCC1.O=S(=O)([N-]S(=O)(=O)C(F)(F)F)C(F)(F)F

1: 1455.9; 2: 1439.4

---

details: 353.15 K; 35000 kPa; Liquid; Vibrating tube method
Exercise: for every item that follows, state its recorded mass density.
Answers are plain numbers, in kg/m3.

Batch of 5 compounds: report mass density for each.
1. CCn1cc[n+](C)c1.O=S(=O)([O-])C(F)(F)F [1-ethyl-3-methylimidazolium trifluoromethanesulfonate]
2. CCC[n+]1cccc(C)c1.O=S(=O)([N-]S(=O)(=O)C(F)(F)F)C(F)(F)F
3. CCCC[N+]1(C)CCCC1.O=S(=O)([N-]S(=O)(=O)C(F)(F)F)C(F)(F)F
4. CCC[N+]1(C)CCCC1.O=S(=O)([N-]S(=O)(=O)C(F)(F)F)C(F)(F)F
5. CCC[N+]1(C)CCCCC1.O=S(=O)([N-]S(=O)(=O)C(F)(F)F)C(F)(F)F

1347.8
1422.9
1379.4
1407.9
1385.7

---

conditions: 303.15 K; 35000 kPa; Liquid; Vibrating tube method
measured-parameter: mass density (kg/m3)
Give bare numbers, in kg/m3.

INSERT INTO measurements (compound, readout_number) VALUES
  ('CCC[N+]1(C)CCCC1.O=S(=O)([N-]S(=O)(=O)C(F)(F)F)C(F)(F)F', 1453);

Parameters: items (list). Returns: mass density for each item.
1. CCn1cc[n+](C)c1.O=S(=O)([O-])C(F)(F)F [1-ethyl-3-methylimidazolium trifluoromethanesulfonate]
2. CCCC[N+]1(C)CCCC1.O=S(=O)([N-]S(=O)(=O)C(F)(F)F)C(F)(F)F
3. CCC[N+]1(C)CCCCC1.O=S(=O)([N-]S(=O)(=O)C(F)(F)F)C(F)(F)F

1. 1390.2
2. 1423.6
3. 1430.7

Quick one: mass density of `CCC[n+]1cccc(C)c1.O=S(=O)([N-]S(=O)(=O)C(F)(F)F)C(F)(F)F` ?
1470

---

Please respond with reported mass density for every item in the list.
settings: 293.15 K; 2000 kPa; Liquid; Vibrating tube method
Numbers only, in kg/m3.

Worked examples follow.
INSERT INTO measurements (compound, readout_number) VALUES
  ('CCC[n+]1cccc(C)c1.O=S(=O)([N-]S(=O)(=O)C(F)(F)F)C(F)(F)F', 1456.4),
  ('CCCC[N+]1(C)CCCC1.O=S(=O)([N-]S(=O)(=O)C(F)(F)F)C(F)(F)F', 1410.5),
  ('CCn1cc[n+](C)c1.O=S(=O)([O-])C(F)(F)F [1-ethyl-3-methylimidazolium trifluoromethanesulfonate]', 1380.6),
  ('CCC[N+]1(C)CCCCC1.O=S(=O)([N-]S(=O)(=O)C(F)(F)F)C(F)(F)F', 1418.3);

Entry under review: `CCC[N+]1(C)CCCC1.O=S(=O)([N-]S(=O)(=O)C(F)(F)F)C(F)(F)F` . Reported mass density?
1440

---

Assignment: determine reported mass density for the given molecules.
details: 393.15 K; 20000 kPa; Liquid; Vibrating tube method
Answers are plain numbers, in kg/m3.

Answered examples (3):
INSERT INTO measurements (molecule, unit_info, readout_number) VALUES
  ('CCCC[N+]1(C)CCCC1.O=S(=O)([N-]S(=O)(=O)C(F)(F)F)C(F)(F)F', 'kg/m3', 1333.7),
  ('CCC[N+]1(C)CCCCC1.O=S(=O)([N-]S(=O)(=O)C(F)(F)F)C(F)(F)F', 'kg/m3', 1340.7),
  ('CCn1cc[n+](C)c1.O=S(=O)([O-])C(F)(F)F [1-ethyl-3-methylimidazolium trifluoromethanesulfonate]', 'kg/m3', 1305.2);

Go through the items and report each one's mass density.
1. CCC[N+]1(C)CCCC1.O=S(=O)([N-]S(=O)(=O)C(F)(F)F)C(F)(F)F
2. CCC[n+]1cccc(C)c1.O=S(=O)([N-]S(=O)(=O)C(F)(F)F)C(F)(F)F

1. 1361.5
2. 1374.3

---

settings: 323.15 K; 10000 kPa; Liquid; Vibrating tube method
Numbers after ± are expanded uncertainties.
measured-parameter: mass density

Look over these answered cases.
INSERT INTO measurements (molecule, result) VALUES
  ('CCC[N+]1(C)CCCCC1.O=S(=O)([N-]S(=O)(=O)C(F)(F)F)C(F)(F)F', '1395.1 ± 12 kg/m3'),
  ('CCn1cc[n+](C)c1.O=S(=O)([O-])C(F)(F)F [1-ethyl-3-methylimidazolium trifluoromethanesulfonate]', '1358.2 ± 12 kg/m3'),
  ('CCC[N+]1(C)CCCC1.O=S(=O)([N-]S(=O)(=O)C(F)(F)F)C(F)(F)F', '1416.3 ± 12 kg/m3'),
  ('CCC[n+]1cccc(C)c1.O=S(=O)([N-]S(=O)(=O)C(F)(F)F)C(F)(F)F', '1431.9 ± 12 kg/m3');

I have this molecule here, `CCCC[N+]1(C)CCCC1.O=S(=O)([N-]S(=O)(=O)C(F)(F)F)C(F)(F)F` , and I need its recorded mass density.
1387.5 ± 12 kg/m3

---

settings: 293.15 K; 20000 kPa; Liquid; Vibrating tube method
measured-parameter: mass density (kg/m3)
Answers are plain numbers, in kg/m3.

// worked examples, mass density included
INSERT INTO assay_data (molecule, measured_parameter, readout_number) VALUES
  ('CCn1cc[n+](C)c1.O=S(=O)([O-])C(F)(F)F [1-ethyl-3-methylimidazolium trifluoromethanesulfonate]', 'mass density', 1391),
  ('CCCC[N+]1(C)CCCC1.O=S(=O)([N-]S(=O)(=O)C(F)(F)F)C(F)(F)F', 'mass density', 1423);

Next:
What does the record list as mass density for `CCC[N+]1(C)CCCCC1.O=S(=O)([N-]S(=O)(=O)C(F)(F)F)C(F)(F)F` ?
1430.4

---

details: 353.15 K; 2000 kPa; Liquid; Vibrating tube method
Assignment: determine reported mass density for the given molecules.
Numbers only, in kg/m3.

Solved cases below.
INSERT INTO assay_data (molecule, measured_parameter, readout_number) VALUES
  ('CCC[n+]1cccc(C)c1.O=S(=O)([N-]S(=O)(=O)C(F)(F)F)C(F)(F)F', 'mass density', 1395.5),
  ('CCn1cc[n+](C)c1.O=S(=O)([O-])C(F)(F)F [1-ethyl-3-methylimidazolium trifluoromethanesulfonate]', 'mass density', 1326.6),
  ('CCC[N+]1(C)CCCC1.O=S(=O)([N-]S(=O)(=O)C(F)(F)F)C(F)(F)F', 'mass density', 1381.7);

Quick one: mass density for `CCCC[N+]1(C)CCCC1.O=S(=O)([N-]S(=O)(=O)C(F)(F)F)C(F)(F)F` ?
1353.2
